# MEASUREMENT_PARAMETERS: in n-butyl acetate, 293.15 K
METRIC_NAME: solubility (mole fraction)
Number, no unit, nothing else.

Which solubility (mole fraction) value belongs to COc1cc(CO)ccc1O ?
0.0098

----------
# MEASUREMENT_PARAMETERS: in ethanol, 303.15 K
METRIC_NAME: solubility (mole fraction)
Number, no unit, nothing else.

Which solubility (mole fraction) value belongs to COc1cc(CO)ccc1O ?
0.0627

----------
# MEASUREMENT_PARAMETERS: in ethanol, 293.15 K
METRIC_NAME: solubility (mole fraction)
Number, no unit, nothing else.

Which solubility (mole fraction) value belongs to COc1cc(CO)ccc1O ?
0.0442
